# measurement notes: Peptide stability in simulated intestinal fluid (SIF)
# Assay type: in vitro ADME
# measurement setup: pig, simulated intestinal fluid; SIF, 4 h, pH 6.8, pancreatin, 37° C., 10 μM; read-out: SIF (% remaining 4 h)
parameter measured: remaining at 4 h, 10 µM (%)
Expressed in %, but write only the number.

CNC(=O)[C@H](Cc1cccnc1)NC(=O)[C@](C)(CO)NC(=O)[C@@H]1CCC(=O)NCc2ccc(cc2)CC(=O)N[C@@H](CO)C(=O)N[C@H]2CCC(=O)NCC[C@H](NC(=O)[C@H](CCC(N)=O)NC(=O)[C@H](Cc3c[nH]c4ccccc34)NC2=O)C(=O)N[C@@H](Cc2ccc(OCCN)cc2)C(=O)N[C@@H](Cc2ccc3ccccc3c2)C(=O)N[C@@](C)(CC(C)C)C(=O)N1; 85

Now consider the entry below.
Q: Supply measured remaining at 4 h, 10 µM of CNC(=O)[C@H](Cc1cccnc1)NC(=O)C1(NC(=O)[C@@H]2CCC(=O)NCc3ccc(cc3)CC(=O)N[C@@H](CO)C(=O)N[C@H]3CCC(=O)NCC[C@H](NC(=O)[C@H](CCC(N)=O)NC(=O)[C@H](Cc4c[nH]c5ccccc45)NC3=O)C(=O)N[C@@H](Cc3ccc(OCCN)cc3)C(=O)N[C@@H](Cc3ccc4ccccc4c3)C(=O)N[C@@](C)(CC(C)C)C(=O)N2)CCOCC1 in your reply.
A: 96

----------
IC50 values, listed per item
# experimental system: human IL-23R (Homo sapiens, UniProt Q5VWK5)
# Construct: Nanoluc luciferase (Nluc); secretion signal encoded by the plasmid (not specified); expressed in transfected cells; crude membranes used in the assay
# Sequence (Q5VWK5 22-629): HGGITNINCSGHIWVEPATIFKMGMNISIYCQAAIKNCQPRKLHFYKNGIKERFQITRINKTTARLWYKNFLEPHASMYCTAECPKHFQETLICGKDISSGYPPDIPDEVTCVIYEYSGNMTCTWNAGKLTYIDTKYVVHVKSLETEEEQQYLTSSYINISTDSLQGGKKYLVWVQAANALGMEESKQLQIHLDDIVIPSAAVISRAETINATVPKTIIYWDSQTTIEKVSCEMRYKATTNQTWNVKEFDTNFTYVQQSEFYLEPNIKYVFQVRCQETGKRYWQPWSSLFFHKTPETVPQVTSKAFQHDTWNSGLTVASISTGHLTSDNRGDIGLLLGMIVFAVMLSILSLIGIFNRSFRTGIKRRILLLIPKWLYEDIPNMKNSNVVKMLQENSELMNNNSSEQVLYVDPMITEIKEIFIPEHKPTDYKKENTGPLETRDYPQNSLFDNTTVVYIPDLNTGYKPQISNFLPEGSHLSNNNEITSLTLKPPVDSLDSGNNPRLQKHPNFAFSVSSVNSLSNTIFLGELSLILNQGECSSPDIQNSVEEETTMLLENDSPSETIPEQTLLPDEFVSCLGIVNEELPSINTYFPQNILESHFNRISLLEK
# measurement notes: Binding assay: displacement of fluorophore (TAMRA)-labelled reference compound from human IL-23R (BRET, Nluc-IL23R fusion protein membranes)
Expressed in nM, but write only the number.

CNC(=O)[C@H](Cc1cccnc1)NC(=O)C1(NC(=O)[C@@H]2CCC(=O)NCc3ccc(cc3)CC(=O)N[C@@H](CO)C(=O)N[C@H]3CCC(=O)NCC[C@H](NC(=O)[C@H](CCC(N)=O)NC(=O)[C@H](Cc4c[nH]c5ccccc45)NC3=O)C(=O)N[C@@H](Cc3ccc(OCCN)cc3)C(=O)N[C@@H](Cc3ccc4ccccc4c3)C(=O)N[C@@](C)(CC(C)C)C(=O)N2)CCOCC1; 0.039
CNC(=O)[C@H](Cc1cccnc1)NC(=O)[C@H](CCN)NC(=O)[C@@H]1CCC(=O)NCc2ccc(cc2)CC(=O)N[C@@H](C)C(=O)N[C@H]2CCC(=O)NCC[C@H](NC(=O)[C@H](CCC(N)=O)NC(=O)[C@H](Cc3c[nH]c4ccccc34)NC2=O)C(=O)N[C@@H](Cc2ccc(OCCN)cc2)C(=O)N[C@@H](Cc2cnc3ccccc3c2)C(=O)NC(C)(C)C(=O)N1; 0.023

Now consider the entry below.
Q: Supply measured IC50 of CNC(=O)[C@H](Cc1cccnc1)NC(=O)[C@H](CCN)NC(=O)[C@@H]1CCC(=O)NCc2ccc(cc2)CC(=O)N[C@@H](C)C(=O)N[C@H]2CCC(=O)NCC[C@H](NC(=O)[C@H](CCC(N)=O)NC(=O)[C@H](Cc3c[nH]c4ccccc34)NC2=O)C(=O)N[C@@H](Cc2cnc3ccccc3c2)C(=O)N[C@@H](Cc2ccc3ccccc3c2)C(=O)NC(C)(C)C(=O)N1 in your reply.
A: 0.081

----------
# Test system: IL-23 mediated STAT3 signalling (DB cells)
# measurement notes: Functional inhibition of IL-23 mediated STAT3 signalling (phospho-STAT3 Tyr705) in DB cells
# Format: cell-based, human
# measurement setup: Table 3-2, EC80 of hIL-23, read-out: hIL-23 (pSTAT3) antagonist IC50
*1 amine or outer side, *2 acyl side, *3 side chain or, on linkers, in order; H or OH if unused. Where a SMILES comes first, the peptide text is derived from it. Bridges are numbered along the chain shown (N, C = ends). [ ]: non-standard residue; d: D form. 2Nal = N[C@@H](Cc1ccc2ccccc2c1)C(=O)O; AEF = NCCOc1ccc(C[C@H](N)C(=O)O)cc1; X1 = O=C(Cc1ccc(CN[*:1])cc1)[*:2]; 3Pal = N[C@@H](Cc1cccnc1)C(=O)O; αMeL = CC(C)C[C@](C)(N)C(=O)O; CH2COCH2 = O=C(C[*:1])C[*:2]; 3Amb = NCc1cccc(C(=O)O)c1; Dab = NCC[C@H](N)C(=O)O; Sar = CNCC(=O)O
IC50 values, listed per item
Expressed in nM, but write only the number.

CC(C)C[C@@H]1NC(=O)[C@H](Cc2ccc3ccccc3c2)NC(=O)[C@H](Cc2c[nH]c3ccccc23)NC(=O)[C@@H]2CSCC(=O)CSC[C@H](NC(=O)[C@H](CO)NC(=O)c3cccc(c3)CNC(=O)CC[C@@H](C(=O)N[C@@H](CCCNC(=N)N)C(N)=O)NC1=O)C(=O)N[C@@H](Cc1c[nH]c3ccccc13)C(=O)N[C@@H](CCC(N)=O)C(=O)N2 [Ref 37, reference compound] ([3Amb]SCWQCW[2Nal]LER-NH2; linker 3-6 via CH2COCH2; lactam N-10); 45

Q: Supply measured IC50 of CC(C)C[C@]1(C)NC(=O)[C@H](Cc2ccc3ccccc3c2)NC(=O)[C@H](Cc2ccc(OCCN)cc2)NC(=O)[C@@H]2CCNC(=O)CC[C@H](NC(=O)[C@H](CO)NC(=O)Cc3ccc(cc3)CNC(=O)CC[C@@H](C(=O)N[C@@H](CCN)C(=O)N[C@@H](Cc3cccnc3)C(=O)N(C)CC(N)=O)NC1=O)C(=O)N[C@@H](Cc1c[nH]c3ccccc13)C(=O)N[C@@H](CCC(N)=O)C(=O)N2 [Compound 9] ([X1]SEWQ[Dab][AEF][2Nal][αMeL]E[Dab][3Pal][Sar]-NH2; lactam 3-6, N-10) in your reply.
A: 0.025

Q: Supply measured IC50 of CC(C)C[C@]1(C)NC(=O)[C@H](Cc2ccc3ccccc3c2)NC(=O)[C@H](Cc2ccc(OCCN)cc2)NC(=O)[C@@H]2CCNC(=O)CC[C@H](NC(=O)[C@H](CO)NC(=O)Cc3ccc(cc3)CNC(=O)CC[C@@H](C(=O)N[C@@H](CCN)C(=O)N[C@H](Cc3cccnc3)C(N)=O)NC1=O)C(=O)N[C@@H](Cc1c[nH]c3ccccc13)C(=O)N[C@@H](CCC(N)=O)C(=O)N2 [Compound 5] in your reply.
A: 2.1

----------
# Test system: IL-23 mediated STAT3 signalling (DB cells)
# measurement notes: Functional inhibition of IL-23 mediated STAT3 signalling (phospho-STAT3 Tyr705) in DB cells
# Format: cell-based, human
# measurement setup: Table 3-2, EC80 of hIL-23, read-out: hIL-23 (pSTAT3) antagonist IC50
*1 amine or outer side, *2 acyl side, *3 side chain or, on linkers, in order; H or OH if unused. Where a SMILES comes first, the peptide text is derived from it. Bridges are numbered along the chain shown (N, C = ends). [ ]: non-standard residue; d: D form. 2Nal = N[C@@H](Cc1ccc2ccccc2c1)C(=O)O; AEF = NCCOc1ccc(C[C@H](N)C(=O)O)cc1; X1 = O=C(Cc1ccc(CN[*:1])cc1)[*:2]; 3Pal = N[C@@H](Cc1cccnc1)C(=O)O; αMeL = CC(C)C[C@](C)(N)C(=O)O; CH2COCH2 = O=C(C[*:1])C[*:2]; 3Amb = NCc1cccc(C(=O)O)c1; Dab = NCC[C@H](N)C(=O)O
The label Condition met is reserved for IC50 strictly under 0.04 nM; Condition not met covers values equal to or above it.

Here are 3 molecules together with their reported answers.
CNC(=O)CC[C@@H]1NC(=O)[C@H](Cc2c[nH]c3ccccc23)NC(=O)[C@@H]2CCC(=O)NCC[C@H](NC1=O)C(=O)N[C@@H](Cc1ccc(OCCN)cc1)C(=O)N[C@@H](Cc1ccc3ccccc3c1)C(=O)N[C@@](C)(CC(C)C)C(=O)N[C@H](C(=O)N[C@@H](CCN)C(=O)N[C@@H](Cc1cccnc1)C(=O)NC)CCC(=O)NCc1ccc(cc1)CC(=O)N[C@@H](CO)C(=O)N2 [Compound 29] ([X1]SEWE(NHMe)[Dab][AEF][2Nal][αMeL]E[Dab][3Pal]-NHMe; lactam 3-6, N-10); Condition not met
CNC(=O)[C@H](Cc1cccnc1)NC(=O)[C@H](CCN)NC(=O)[C@@H]1CCC(=O)NCc2ccc(cc2)CC(=O)N[C@@H](C)C(=O)N[C@H]2CCC(=O)NCC[C@H](NC(=O)[C@H](CCC(N)=O)NC(=O)[C@H](Cc3c[nH]c4ccccc34)NC2=O)C(=O)N[C@@H](Cc2c[nH]c3ncccc23)C(=O)N[C@@H](Cc2ccc3ccccc3c2)C(=O)NC(C)(C)C(=O)N1 [Compound 43]; Condition not met
CC(C)C[C@]1(C)NC(=O)[C@H](Cc2ccc3ccccc3c2)NC(=O)[C@H](Cc2ccc(OCCN)cc2)NC(=O)[C@@H]2CSCC(=O)CSC[C@H](NC(=O)[C@H](CO)NC(=O)c3cccc(c3)CNC(=O)CC[C@@H](C(=O)N[C@@H](CCCNC(=N)N)C(=O)N[C@@H](Cc3cccnc3)C(N)=O)NC1=O)C(=O)N[C@@H](Cc1c[nH]c3ccccc13)C(=O)N[C@@H](CCC(N)=O)C(=O)N2 [Ref 78, reference compound] ([3Amb]SCWQC[AEF][2Nal][αMeL]ER[3Pal]-NH2; linker 3-6 via CH2COCH2; lactam N-10); Condition not met

Q: For this molecule, is IC50 lower than 0.04 nM? CNC(=O)[C@H](Cc1cccnc1)NC(=O)[C@@H](CO)NC(=O)[C@@H]1CCC(=O)NCc2ccc(cc2)CC(=O)N[C@@H](CO)C(=O)N[C@H]2CCC(=O)NCC[C@H](NC(=O)[C@H](CCC(N)=O)NC(=O)[C@H](Cc3c[nH]c4ccccc34)NC2=O)C(=O)N[C@@H](Cc2ccc(OCCN)cc2)C(=O)N[C@@H](Cc2ccc3ccccc3c2)C(=O)N[C@@](C)(CC(C)C)C(=O)N1 [Compound 38]
A: Condition not met

Q: For this molecule, is IC50 lower than 0.04 nM? CC(C)C[C@]1(C)NC(=O)[C@H](Cc2ccc3ccccc3c2)NC(=O)[C@H](Cc2ccc(OCCN)cc2)NC(=O)[C@@H]2CCNC(=O)CC[C@H](NC(=O)[C@H](CO)NC(=O)Cc3ccc(cc3)CNC(=O)CC[C@@H](C(=O)N[C@@H](CCN)C(=O)N[C@@H](Cc3cccnc3)C(=O)N[C@H](Cc3c[nH]cn3)C(N)=O)NC1=O)C(=O)N[C@@H](Cc1c[nH]c3ccccc13)C(=O)N[C@@H](CCC(N)=O)C(=O)N2 [Compound 10] ([X1]SEWQ[Dab][AEF][2Nal][αMeL]E[Dab][3Pal][dH]-NH2; lactam 3-6, N-10)
A: Condition met
